- TESTED SYSTEM: T1, human VEGF (human, UniProt P15692-4 27-191)
- T1 construct: Bought recombinant protein; also called hVEGF; human VEGF-A
- T1 sequence (P15692 other isoform, or with tags, fused parts or gaps limits assumed): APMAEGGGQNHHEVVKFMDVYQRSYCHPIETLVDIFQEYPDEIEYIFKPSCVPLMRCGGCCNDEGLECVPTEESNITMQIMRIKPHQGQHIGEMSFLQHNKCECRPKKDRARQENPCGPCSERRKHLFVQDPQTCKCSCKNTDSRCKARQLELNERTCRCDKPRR
- EXPERIMENT DESCRIPTION: SPR (BIAcore X100), VEGF on CM5 chip, IgG injected, 1:1 Langmuir
MEASURED QUANTITY: Kd

| BINDER | MEAS VALUE |
| --- | --- |
| HF2-1 (antibody, V domains shown, also called HF-1) VH: EVQLVESGGGLVQPGGSLRLSCAASNFVFRSHGMQWVRQAPGKGLEYVAGISSDGSWTGYGAAVEGRFTISRDDSKNTAYLQMNSLRAEDTAVYYCARDFSTGYGADSIDAWGQGTLVTVSS VL: DIQMTQSPSSLSASVGDRVTITCSGGSDSAYGYGWYQQKPGKAPKTLIYWDDKRPSGVPSRFSGSRSGTDFTLTISSLQPEDFATYYCGAWEYSGGVGIFGQGTKVEIK | < 1 pM |

Attribution: patent US20160122426A1
